Source: patent US20250171459A1

Provide the recorded IC50 for the entries that follow.
Molecular target: UniProt O14791
Assay: MultiTox-Fluor Multiplex Cytotoxicity Assay in tet-inducible APOL1 T-REx-HEK293 cells (cell rescue, ratio of dead to live cells)
Format: cell-based
Settings: tet-inducible transgenic APOL1 T-REx-HEK293 cell lines, 50 ng/mL tet, 24 hours; read-out: IP50 (i.e., IC50 for cell proliferation)
Description: The MultiTox-Fluor Multiplex Cytotoxicity Assay is a single-reagent-addition, homogeneous, fluorescence assay that measures the number of live and dead cells simultaneously in culture wells. […] The MultiTox reagent was added to each well and placed back in the incubator for an additional 30 minutes. The plate was read on the EnVision plate reader. A ratio of dead to live cells was used to normalize, and data was imported, analyzed, and fit using Genedata Screener (Basel, Switzerland) software. […]

Inquiry: Looking for the measured IC50 of "C[C@H]1C[C@@]2(CCN1Cc1cnn(CC(=O)NC3CC3)c1)OCCc1c2sc(C(F)(F)F)c1CO" , can you help?
Reply text: < 100 nM

Inquiry: Cool, now "CCc1cc2c(s1)CCO[C@@]21CCN(C[C@H]2C[C@@H](NS(=O)(=O)c3cccc(C)c3)C2)[C@@H](C)C1"
Reply text: < 100 nM

Inquiry: Quick one: "C[C@H]1C[C@@]2(CCN1Cc1ccc(S(C)(=O)=O)c(F)c1)OCCc1cc(Cl)sc12"
Reply text: 100 to 500 nM

Inquiry: Param item: CC1Cc2sc(Cl)cc2C2(CCN(Cc3cnn(C)c3)[C@@H](C)C2)O1 (single isomer, unassigned) [Compound 529]
Reply text: < 100 nM

Inquiry: Then "C[C@H]1C[C@@]2(CCN1Cc1cnn(CCS(C)(=O)=O)c1)OCCc1cc(CC(F)(F)F)sc12" ?
Reply text: < 100 nM

Inquiry: Thanks! And "CCc1cc2c(s1)CCO[C@@]21CCN(CC(=O)OC)[C@@H](C)C1" ?
Reply text: 500 to 1000 nM

Inquiry: Similarly, "C[C@H]1C[C@@]2(CCN1Cc1ccc(OCCO)cc1)OCCc1c2sc(Cl)c1CO" ?
Reply text: < 100 nM

---

Give measured pIC50 for each item. Keep answers brief.
target: APOL1 (Homo sapiens); assay: MultiTox-Fluor Multiplex Cytotoxicity Assay in tet-inducible APOL1 T-REx-HEK293 cells (cell rescue, ratio of dead to live cells); conditions: tet-inducible transgenic APOL1 T-REx-HEK293 cell lines, 50 ng/mL tet, 24 hours; read-out: IP50 (i.e., IC50 for cell proliferation)
pIC50: −log10 of the molar value.

Inquiry: Which pIC50 value belongs to "CCc1cc2c(s1)CCO[C@@]21CCN(C[C@H]2C[C@@H](NC(=O)Cn3cncn3)C2)[C@@H](C)C1" ?
Reply text: 6.30 to 7.00

Inquiry: # repeat for CCc1cc2c(s1)CCO[C@@]21CCN(C[C@H]2C[C@@H](NC(=O)C3CCc4ccccc4O3)C2)[C@H](C)C1 (stereo in doubt)
Reply text: 6.30 to 7.00

Inquiry: Proceed to "CCc1cc2c(s1)CCO[C@@]21CCN(C)[C@@H](C)C1"
Reply text: 6.00 to 6.30

Inquiry: How about C[C@H]1CC2(CCN1Cc1cnn(C)c1)OC(CO)Cc1sc(Cl)cc12 (stereo partly shown) ?
Reply text: > 7.00

Inquiry: "CCc1cc2c(s1)CCOC21CCN(Cc2ccc(NCC3CCOCC3)nc2)CC1" ?
Reply text: > 7.00

Inquiry: Can you check CCC1Cc2sc(Cl)cc2C2(CCN(Cc3cnn(C)c3)[C@@H](C)C2)O1 (stereo partly shown) next?
Reply text: 6.00 to 6.30

Inquiry: Could you do the same for "COc1cc(CN2CC[C@]3(C[C@@H]2C)OC[C@H](O)c2cc(Cl)sc23)ccc1OCC(N)=O" , please?
Reply text: > 7.00

Inquiry: Lookup "CCc1cc2c(s1)CCO[C@@]21CCN(CC2CN(C(=O)CN3CCOC3=O)C2)[C@@H](C)C1"
Reply text: > 7.00

Inquiry: For "CCc1cc2c(s1)CCO[C@@]21CCN(Cc2cn[nH]c2)[C@@H](C)C1" then?
Reply text: > 7.00

Inquiry: Next compound: "C[C@H]1C[C@@]2(CCN1CC(=O)N(C)C)OCCc1cc(CC(F)F)sc12"
Reply text: 6.00 to 6.30

Inquiry: Please give the result for CCc1cc2c(s1)CCOC21CCN(Cc2cn(C3CCC3(F)F)nn2)CC1 (stereo not shown) too.
Reply text: 6.00 to 6.30

Inquiry: Another compound to check: "CCc1cc2c(s1)CCOC21CCN(Cc2cn(CCS(N)(=O)=O)nn2)CC1"
Reply text: 6.30 to 7.00

Inquiry: Also need "C[C@H]1C[C@@]2(CCN1C[C@H]1C[C@@H](NC(=O)C3CC3)C1)OCCc1cc(CC(F)F)sc12" , thanks.
Reply text: > 7.00

Inquiry: Again, but for C[C@H]1C[C@@]2(CCN1Cc1cnn(CC3CCNC(=O)C3)c1)OCCc1c2sc(C(F)(F)F)c1CO (stereo partly shown)
Reply text: > 7.00

Inquiry: Same question for Cc1cc2c(s1)CCO[C@@]21CCN(CC(O)C(N)=O)[C@@H](C)C1 (stereo partly shown) [Compound 503] please.
Reply text: 6.30 to 7.00

Inquiry: One more compound: CC(O)c1c(C(F)(F)F)sc2c1CCO[C@@]21CCN(Cc2cnn(CCS(C)(=O)=O)c2)[C@@H](C)C1 (stereo partly shown) [Compound 879]
Reply text: > 7.00

Inquiry: Would you kindly repeat that for "CCc1cc2c(s1)CCOC21CCN(Cc2ccc(C(=O)N3CC(CO)C3)nc2)CC1" ?
Reply text: > 7.00

Inquiry: Now consider "C[C@H]1C[C@@]2(CCN1CCC(C)(C)O)OCCc1cc(CC(F)F)sc12" .
Reply text: 6.30 to 7.00

Inquiry: How about "C[C@H]1C[C@@]2(CCN1Cc1cn(-c3ncccn3)cn1)OC[C@H](O)c1cc(Cl)sc12" ?
Reply text: 6.30 to 7.00

Inquiry: Next compound: "COc1cc(OCC(N)=O)ccc1CN1CC[C@]2(C[C@@H]1C)OCCc1c2sc(Cl)c1CO"
Reply text: 6.30 to 7.00

Inquiry: Quick one: "CCc1cc2c(s1)CCO[C@@]21CCN(Cc2cn(CC(=O)N3CCCC3)nn2)[C@@H](C)C1"
Reply text: > 7.00

Inquiry: Ok, now "CCc1cc2c(s1)CCO[C@@]21CCN(C[C@H]2C[C@@H](NS(=O)(=O)c3ccccc3)C2)[C@@H](C)C1"
Reply text: > 7.00

Inquiry: // query: "Cc1cnc(Cn2cc(CN3CC[C@]4(C[C@@H]3C)OCCc3c4sc(C(F)(F)F)c3CO)cn2)cn1"
Reply text: > 7.00

Inquiry: // repeat for "C[C@H]1C[C@@]2(CCN1CC1(C)COC1)OCCc1c2sc(Cl)c1CO" and report
Reply text: 6.00 to 6.30

Inquiry: And what about the compound "Cc1sc2c(c1C)[C@]1(CCN(Cc3cnn(C)c3)[C@@H](C)C1)OCC2" ?
Reply text: > 7.00

Inquiry: Consider next the compound "CCc1cc2c(s1)CCO[C@@]21CCN(C[C@H]2C[C@@H](NC(=O)C(C)(C)C#N)C2)[C@@H](C)C1" in the same way.
Reply text: 6.30 to 7.00

Inquiry: Another compound to check: C[C@H]1C[C@@]2(CCN1Cc1cnn(CC(C)(O)C(=O)NC3CC3)c1)OCCc1c2sc(C(F)(F)F)c1CO (stereo partly shown)
Reply text: > 7.00

Inquiry: Try this compound too: CCc1cc2c(s1)CCO[C@@]21CCN(C2CCCC2O)[C@@H](C)C1 (stereo partly shown) [Compound 234]
Reply text: > 7.00

Inquiry: Note, next up: "CCc1cc2c(s1)CCO[C@@]21CCN(C[C@H]2C[C@@H](NC(=O)CC3CCC(F)(F)CC3)C2)[C@@H](C)C1"
Reply text: > 7.00

Inquiry: What do we get for "C[C@H]1C[C@@]2(CCN1Cc1cnn(CCO)c1)OCCc1cc(CC(F)F)sc12" ?
Reply text: > 7.00

Inquiry: Another: CCc1cc2c(s1)CCOC21CCN(Cc2cn(CC3(O)CCOC3)nn2)C(C)C1 (stereo not shown)
Reply text: 6.00 to 6.30

---

Give pIC50 for every item shown.
biological target: APOL1 (Homo sapiens, UniProt O14791); experiment: MultiTox-Fluor Multiplex Cytotoxicity Assay in tet-inducible APOL1 T-REx-HEK293 cells (cell rescue, ratio of dead to live cells); format: cell-based; conditions: tet-inducible transgenic APOL1 T-REx-HEK293 cell lines, 50 ng/mL tet, 24 hours; read-out: IP50 (i.e., IC50 for cell proliferation)
Sequence (O14791 whole entry S342G/I384M, form open): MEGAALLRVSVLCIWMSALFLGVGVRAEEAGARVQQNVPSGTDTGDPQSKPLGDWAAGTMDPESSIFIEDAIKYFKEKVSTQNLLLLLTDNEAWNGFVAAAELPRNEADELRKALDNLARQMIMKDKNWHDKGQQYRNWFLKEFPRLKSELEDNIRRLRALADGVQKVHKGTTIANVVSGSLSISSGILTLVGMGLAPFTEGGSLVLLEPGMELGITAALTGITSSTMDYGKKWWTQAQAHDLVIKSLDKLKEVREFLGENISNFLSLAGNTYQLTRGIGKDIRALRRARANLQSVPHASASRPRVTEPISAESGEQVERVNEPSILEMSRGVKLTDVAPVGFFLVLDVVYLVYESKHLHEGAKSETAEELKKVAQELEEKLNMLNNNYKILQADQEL
pIC50: −log10 of the molar value.

Inquiry: // query pIC50 value for entry "CCc1cc2c(s1)CCO[C@@]21CCN(Cc2cn(Cc3cnn(C)c3C)nn2)[C@@H](C)C1"
Reply text: > 7.00

Inquiry: And the next one, "COc1cnc(CN2CC[C@]3(C[C@@H]2C)OC[C@H](O)c2cc(Cl)sc23)cn1" ?
Reply text: 6.30 to 7.00

Inquiry: Moving on to the next molecule: "CCc1cc2c(s1)CCO[C@]21CCN(Cc2cnn(C)c2)[C@H](C)C1"
Reply text: 6.30 to 7.00

Inquiry: Now give it for "CCc1cc2c(s1)CCO[C@@]21CCN(C[C@H]2C[C@@H](NS(=O)(=O)CC)C2)[C@@H](C)C1" too.
Reply text: > 7.00
